biological target: T1, Peptide-39 (cysteine pairing not given here; also: biotinylated, site not given here); assay: ELISA, Fab on captured biotin-peptide
T1 peptide: VDFCGLYHWPICYQVD
Where no end group is shown, it is not given here.
Each entry below carries its reported EC50.
Response body: numeric value in nM, unit text excluded.

{"binder": "TBD-6 (LC I93A) (Fab, V domains shown, Fab; also called LC I93A mutant) VH: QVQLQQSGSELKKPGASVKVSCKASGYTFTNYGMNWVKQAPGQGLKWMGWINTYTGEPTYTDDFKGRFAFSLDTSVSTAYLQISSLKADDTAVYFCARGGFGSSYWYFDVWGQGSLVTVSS VL: DIQLTQSPSSLSASVGDRVSITCKASQDVSIAVAWYQQKPGKAPKLLIYSASYRYTGVPDRFSGSGSGTDFTLTISSLQPEDFAVYYCQQHYATPLTFGAGTKVEIKR", "EC50, nM": 32.1}

Qu. May I ask what EC50 has been recorded for TBD-17 (HC S104A) (Fab, V domains shown, Fab; also called HC S104A mutant) VH: QVQLQQSGSELKKPGASVKVSCKASGYTFTNYGMNWVKQAPGQGLKWMGWINTYTGEPTYTDDFKGRFAFSLDTSVSTAYLQISSLKADDTAVYFCARGGFGSAYWYFDVWGQGSLVTVSS VL: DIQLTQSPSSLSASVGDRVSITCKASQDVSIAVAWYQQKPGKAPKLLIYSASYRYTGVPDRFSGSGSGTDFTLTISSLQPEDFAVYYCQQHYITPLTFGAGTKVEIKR ?
Ans. 16.4

Qu. Need EC50, item TBD-21 (HC F108A) (Fab, V domains shown, Fab; also called HC F108A mutant) VH: QVQLQQSGSELKKPGASVKVSCKASGYTFTNYGMNWVKQAPGQGLKWMGWINTYTGEPTYTDDFKGRFAFSLDTSVSTAYLQISSLKADDTAVYFCARGGFGSSYWYADVWGQGSLVTVSS VL: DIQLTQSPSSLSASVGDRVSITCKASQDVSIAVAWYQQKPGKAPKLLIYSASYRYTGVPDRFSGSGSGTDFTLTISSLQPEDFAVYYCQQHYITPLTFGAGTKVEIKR
Ans. 32.7
